Tested on: BALB/3T3 cells
Assay: Cytotoxicity assay (SRB), 72 h
Details: Mus musculus, BALB/3T3, 72 h, read-out: IC50 BALB/3T3
pIC50: −log10 of the molar value.
readout.type: pIC50

1. COc1cc2c(cc1OC)N(CCCCCC(=O)NO)C(=O)c1ccccc1N(C)C2=O ... 4.92
2. CN1C(=O)c2cc3ccccc3cc2N(CCCCCC(=O)NO)C(=O)c2cc(Cl)ccc21 ... 6.16
3. O=C(CCCCCN1C(=O)c2ccccc2CCc2ccccc21)NO ... 5.98
4. O=C(CCCCCN1C(=O)c2ccccc2C=Cc2ccccc21)NO ... 5.89
5. CN1C(=O)c2cc(Br)ccc2N(CCCCCC(=O)NO)C(=O)c2ccccc21 ... 5.47
